# TGT: Human Serum Albumin (HSA) (Homo sapiens, UniProt P02768)
# Sequence (P02768 25-609): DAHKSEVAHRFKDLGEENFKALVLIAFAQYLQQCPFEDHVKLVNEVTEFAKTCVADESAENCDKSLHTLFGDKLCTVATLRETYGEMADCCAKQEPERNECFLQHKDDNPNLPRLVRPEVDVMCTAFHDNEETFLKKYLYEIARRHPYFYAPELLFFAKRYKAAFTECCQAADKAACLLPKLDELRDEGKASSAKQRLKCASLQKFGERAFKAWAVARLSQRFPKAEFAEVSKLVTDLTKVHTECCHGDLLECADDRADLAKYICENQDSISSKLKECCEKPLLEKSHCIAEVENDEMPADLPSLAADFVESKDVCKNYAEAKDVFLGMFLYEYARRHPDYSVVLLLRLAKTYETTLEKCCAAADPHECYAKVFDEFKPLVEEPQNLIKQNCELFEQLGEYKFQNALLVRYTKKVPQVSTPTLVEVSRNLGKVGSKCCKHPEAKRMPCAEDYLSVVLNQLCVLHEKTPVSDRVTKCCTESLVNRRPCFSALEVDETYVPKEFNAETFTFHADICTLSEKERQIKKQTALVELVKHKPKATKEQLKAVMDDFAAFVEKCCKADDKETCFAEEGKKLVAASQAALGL
# PROCEDURE TEXT: biochemical
MEASURED PROPERTY: Kd (µM)

[[record]]
molecule = "Cc1ccc2c(CC(N)C(=O)O)c[nH]c2c1 (racemic)"
units_text = "µM"
endpoint_result = 37

